B1: PLAGL1 (parent)
chain: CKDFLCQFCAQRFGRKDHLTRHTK

Variants of: B1
protocol: protein stability index of a GFP-peptide fusion (GPS, HEK-293T) (PSI 1-6); higher = more stable;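 further: lentivirally expressed fusions sorted by FACS into six bins by GFP to DsRed ratio, PSI derived from sequencing read proportions per bin multiplied by bin number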
condition-details: c terminus: a fixed tail appended
quantity-name: protein stability index

- polymer-sequence: "CKDFLCQFCAQRFGRKDHTTRHTK [L19T]"
  measured: 3.32
- polymer-sequence: "CKDFLCQFCAQRFGRKDHLTHHTK [R21H]"
  measured: 1.87
- polymer-sequence: "CKDFLCQFCAQRFGRKKHLTRHTK [D17K]"
  measured: 1.94
- polymer-sequence: "CKDFLCQFCAQREGRKDHLTRHTK [F13E]"
  measured: 2.86
- polymer-sequence: "CKDFLCQFCAQRFGRKCHLTRHTK [D17C]"
  measured: 2.06
- polymer-sequence: "CKDFLCQFCAQRFKRKDHLTRHTK [G14K]"
  measured: 2
- polymer-sequence: "CKDFLCQFCAQRFGRHDHLTRHTK [K16H]"
  measured: 2.39
- polymer-sequence: "CKDFLCQFCAQRFGRKDHLTGHTK [R21G]"
  measured: 2.02
- polymer-sequence: "CKDFLCQFCAQRFGRKDHLYRHTK [T20Y]"
  measured: 1.82
- polymer-sequence: "CKDGLCQFCAQRFGRKDHLTRHTK [F4G]"
  measured: 2.02
- polymer-sequence: "CKDFLCQFCAQRFGRKDHLTSHTK [R21S]"
  measured: 1.3
- polymer-sequence: "CKDFTCQFCAQRFGRKDHLTRHTK [L5T]"
  measured: 1.81
- polymer-sequence: "VKDFLCQFCAQRFGRKDHLTRHTK [C1V]"
  measured: 1.67
- polymer-sequence: "CKDFLCQFCIQRFGRKDHLTRHTK [A10I]"
  measured: 1.83
- polymer-sequence: "CKDFWCQFCAQRFGRKDHLTRHTK [L5W]"
  measured: 1.93
- polymer-sequence: "CKDFLCQFCAQRFGRKDQLTRHTK [H18Q]"
  measured: 1.96
- polymer-sequence: "CKDFLCQFCAQRFARKDHLTRHTK [G14A]"
  measured: 2.63
- polymer-sequence: "CKDELCQFCAQRFGRKDHLTRHTK [F4E]"
  measured: 2.56
- polymer-sequence: "CKDFLCQFCAQRFGRKWHLTRHTK [D17W]"
  measured: 1.35
- polymer-sequence: "CKDFLCQFAAQRFGRKDHLTRHTK [C9A]"
  measured: 2.05
- polymer-sequence: "CKDFLCQFCAQRFGRKDHLTRHWK [T23W]"
  measured: 1.51
- polymer-sequence: "CKDFLCQFCAQRDGRKDHLTRHTK [F13D]"
  measured: 2.65
- polymer-sequence: "CKDFLCQFCAQRFGRKTHLTRHTK [D17T]"
  measured: 2.44
- polymer-sequence: "CKDFLCQFCAQRFGRKDHLTRHTT [K24T]"
  measured: 2.24
- polymer-sequence: "CRDFLCQFCAQRFGRKDHLTRHTK [K2R]"
  measured: 2.74
- polymer-sequence: "CKDFLCQFCAQRFGRKDHLTRHIK [T23I]"
  measured: 2.4
- polymer-sequence: "CKDFLQQFCAQRFGRKDHLTRHTK [C6Q]"
  measured: 2.34
- polymer-sequence: "CKDFLCQWCAQRFGRKDHLTRHTK [F8W]"
  measured: 1.6
- polymer-sequence: "CKDFLCQFCAQRFERKDHLTRHTK [G14E]"
  measured: 2.78
- polymer-sequence: "CKDFLCQFCAQRFGYKDHLTRHTK [R15Y]"
  measured: 2.38
- polymer-sequence: "CKDFQCQFCAQRFGRKDHLTRHTK [L5Q]"
  measured: 2.01
- polymer-sequence: "CKDFLCQFCAQRFGRKDHLFRHTK [T20F]"
  measured: 1.83
- polymer-sequence: "CKDFLCQFCAQRFGRRDHLTRHTK [K16R]"
  measured: 2.44
- polymer-sequence: "CKDFLCQFCAQRFGRKGHLTRHTK [D17G]"
  measured: 1.67
- polymer-sequence: "CKDFLCQFCAQRFGRKDVLTRHTK [H18V]"
  measured: 2.59
- polymer-sequence: "CKDFLCQFCAQRFGRKDHLTRVTK [H22V]"
  measured: 2.81
- polymer-sequence: "CKDFLCQFCAQRFGRKNHLTRHTK [D17N]"
  measured: 2.04
- polymer-sequence: "CKDFLCQFCAQRFGRKDHLTRWTK [H22W]"
  measured: 2.52
- polymer-sequence: "CKDFLCQFCAQRFGRKDHPTRHTK [L19P]"
  measured: 2.02
- polymer-sequence: "CKDFLCQFCAVRFGRKDHLTRHTK [Q11V]"
  measured: 2.04
- polymer-sequence: "CKDFLCQFCAQRAGRKDHLTRHTK [F13A]"
  measured: 1.91
- polymer-sequence: "CKDFPCQFCAQRFGRKDHLTRHTK [L5P]"
  measured: 2.87
- polymer-sequence: "CKDFLCQFCAQRFGHKDHLTRHTK [R15H]"
  measured: 1.85
- polymer-sequence: "CKDFLCQFCAQRFGIKDHLTRHTK [R15I]"
  measured: 1.91
- polymer-sequence: "CKDFLCQFVAQRFGRKDHLTRHTK [C9V]"
  measured: 2.46
- polymer-sequence: "CKDFLCQFCAQRFGRKDHNTRHTK [L19N]"
  measured: 1.91
- polymer-sequence: "CKDFLCQFCAQRFGRKDHLTRHTE [K24E]"
  measured: 2.3
- polymer-sequence: "CKDFLCQFCAQRCGRKDHLTRHTK [F13C]"
  measured: 3.07
- polymer-sequence: "CKTFLCQFCAQRFGRKDHLTRHTK [D3T]"
  measured: 1.77
- polymer-sequence: "CKDFECQFCAQRFGRKDHLTRHTK [L5E]"
  measured: 2.07
- polymer-sequence: "CKDFLCQACAQRFGRKDHLTRHTK [F8A]"
  measured: 2.94
- polymer-sequence: "CKDFLCQNCAQRFGRKDHLTRHTK [F8N]"
  measured: 2.82
- polymer-sequence: "CKDFLCQQCAQRFGRKDHLTRHTK [F8Q]"
  measured: 2.51
- polymer-sequence: "CVDFLCQFCAQRFGRKDHLTRHTK [K2V]"
  measured: 1.53
- polymer-sequence: "CKDFLCQFCAQRFGRKDHLTNHTK [R21N]"
  measured: 2.53
- polymer-sequence: "CKDFLCQFCAQRFGRKDHLTIHTK [R21I]"
  measured: 1.82
- polymer-sequence: "CKKFLCQFCAQRFGRKDHLTRHTK [D3K]"
  measured: 1.48
- polymer-sequence: "CKDFLCQFCAQRFVRKDHLTRHTK [G14V]"
  measured: 1.99
- polymer-sequence: "CKDQLCQFCAQRFGRKDHLTRHTK [F4Q]"
  measured: 2.34
- polymer-sequence: "CKDFLCQFCAQRFGRKDHLTRHTV [K24V]"
  measured: 1.67
- polymer-sequence: "CKDFLCQFCAQRFGRIDHLTRHTK [K16I]"
  measured: 2.37
- polymer-sequence: "CKDFLCQFCAERFGRKDHLTRHTK [Q11E]"
  measured: 2.14
- polymer-sequence: "CKDLLCQFCAQRFGRKDHLTRHTK [F4L]"
  measured: 1.41
- polymer-sequence: "CKDFLCQFCAQRFGRKDHLTRHVK [T23V]"
  measured: 1.87
- polymer-sequence: "CKDFLCQFCAQRFGRKDCLTRHTK [H18C]"
  measured: 2.6
- polymer-sequence: "CKDFLCQKCAQRFGRKDHLTRHTK [F8K]"
  measured: 2.69
- polymer-sequence: "CKDFLCQFCAQRFGRKRHLTRHTK [D17R]"
  measured: 2.37
- polymer-sequence: "CKDFLCQFCAQRFGGKDHLTRHTK [R15G]"
  measured: 2.36
- polymer-sequence: "CKDFLMQFCAQRFGRKDHLTRHTK [C6M]"
  measured: 1.48
- polymer-sequence: "CKDFLCQFCAARFGRKDHLTRHTK [Q11A]"
  measured: 1.84

Taken from the supplement of paper PMC10567573.
